B1: Twister Ribozyme (parent)
chain: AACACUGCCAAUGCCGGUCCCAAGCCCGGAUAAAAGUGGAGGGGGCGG

Variants of: B1
Experiment: self-cleavage, relative activity (ratio to wild type); higher = more cleavage; co-transcriptional
# self-cleavage values compiled below

Solved cases (3 shown):
In [3]: df
Out[3]:
                             sequence_chain  outcome_measure  reported
0  AACACUGCCAAUGCCGGUCCCAAGCCCGGAUAAAACUAGAGGGGGCGG [G36C G38A]    self-cleavage     0.459
1  AACACUGCCAAUGCCGGUACCAAGCCCGGAUAAAAGUGGAGGGGGAGG [C19A C46A]    self-cleavage     0.197
2  AACACUGCCAAUGCCGGGCCCAAGCCCGGAAAAAAGUGGAGGGGGCGG [U18G U31A]    self-cleavage    0.0937

The variant AACACUGCCAUUGCCGGUCCCCAGCCCGGAUAAAAGUGGAGGGGGCGG [A11U A22C] showed self-cleavage equal to 1.17

The variant AACACUGCCAAUGCCGGUCCCAAGCCCGUAUAAAAGUGGACGGGGCGG [G29U G41C] showed self-cleavage equal to 0.25

The variant AACACUGACAAUGCCGGUCCGAAGCCCGGAUAAAAGUGGAGGGGGCGG [C8A C21G] showed self-cleavage equal to 0.076

The variant AAGACUGCCAAUGCCGGUCCCAAGCCCGGAUAAAAGUGGAGGGGGUGG [C3G C46U] showed self-cleavage equal to 0.583

The variant AACACUUCCAAUGCCGGUCCCAAGCCCGGAUAAAAGCGGAGGGGGCGG [G7U U37C] showed self-cleavage equal to 0.0889

The variant AACACUGCCAAUCCCGGUCCCAAGUCCGGAUAAAAGUGGAGGGGGCGG [G13C C25U] showed self-cleavage equal to 0.163

The variant AACACUGCCAAUGCCGGUCCGAAGCCCGGAUAAAAGAGGAGGGGGCGG [C21G U37A] showed self-cleavage equal to 0.101

The variant AACACUGCCAAUCCCGGUCCCAAGCCCGGAUAAAAGUGGAGCGGGCGG [G13C G42C] showed self-cleavage equal to 0.166
